Items are presented alongside their recorded growth.
System: COLO 205 colon
Assay: NCI-60 one-dose screen, 48 h (100 = growth as untreated, 0 = no growth, -100 = all killed)
Conditions: 10 µM unless noted
The panel holds about 83,000 compounds, 20% with a hit somewhere; the sample as a whole holds those more often.
Number in %, nothing else.

Consider the following illustrative entries.
compound	endpoint.value
CC1CC2C3CCC4=CC(=O)CCC4(C)C3CCC2(C)C1(O)C(=O)CO (stereo not drawn)	117
C/C(=N\O)c1ccccn1	108
C=C(C)[C@@H]1CC[C@]2(CO)CC[C@]3(C)[C@H](CC[C@@H]4[C@@]5(C)CC[C@H](O)C(C)(C)[C@@H]5CC[C@]43C)[C@@H]12	52.5

input: Any idea what growth was measured for C1=NCCc2ccccc21 ?
output: 101

###

Test system: PC-3 prostate
Assay: NCI-60 one-dose screen, 48 h (100 = growth as untreated, 0 = no growth, -100 = all killed)
Details: 10 µM unless noted
About 83,000 compounds went through this panel and 20% of them were active in at least one assay; those are over-represented in the sample as a whole.
property.label: growth (%)
Number in %, nothing else.

molecule	target	unit.abbreviation	endpoint.value
CCCCn1cnc2c(=O)[nH]cnc21	PC-3 prostate	%	94.2
CC(C)=CCC[C@@H](C)[C@H]1CC[C@@]2(C)C3=C(CC[C@]12C)[C@@]1(C)CC[C@H](O)C(C)(C)[C@@H]1CC3	PC-3 prostate	%	101
C/C=C/C1OCC(CC)C(CCC)O1 (stereo unspecified)	PC-3 prostate	%	98.9

input: Any idea what growth was measured for O=C(O)C1CCCN1C(=O)OCc1ccccc1 (stereo unspecified) ?
output: 108

input: Follow-up item: C=COC(=O)C(C)(C)C
output: 95.3

input: Follow-up item: C=C1CC2(OC1=O)C(=O)N(C)c1ccc(I)cc12 (stereo unspecified)
output: -76.6

###

Test system: NCI-H226 lung
Test: NCI-60 one-dose screen, 48 h (100 = growth as untreated, 0 = no growth, -100 = all killed)
Conditions: 10 µM unless noted
The panel holds about 83,000 compounds, 20% with a hit somewhere; the sample as a whole holds those more often.
property.label: growth (%)
Number in %, nothing else.

Consider the following illustrative entries.
molecule	target	growth (%)
CCCCOC(=O)c1ccccc1O	NCI-H226 lung	105
CC(C)c1ccccc1NC(=O)N1CCC(C(C)C)CC1	NCI-H226 lung	95.4
OCC1OC(n2ccc3c2ncn2ncnc32)C(O)C1O (configuration not stated)	NCI-H226 lung	25.1
CC(=O)Nc1ccc(O)c(C)c1	NCI-H226 lung	95

input: Any idea what growth was measured for Nc1ccc(F)c(Cl)c1F ?
output: 91.3

input: Follow-up item: CC1CN(CCO)CC(C)O1 (configuration not stated)
output: 95.2

input: Follow-up item: C=CCNC(=S)N/C=C(/C(=O)c1ccccc1)c1ccccc1
output: 104

###

Test system: IGROV1 ovarian
Assay: NCI-60 one-dose screen, 48 h (100 = growth as untreated, 0 = no growth, -100 = all killed)
Details: 10 µM unless noted
Compounds without any hit were thinned out: in the full panel of roughly 83,000, 20% have a hit.
Items are presented alongside their recorded growth.
Number in %, nothing else.

Consider the following illustrative entries.
compound	growth, %
CC(=O)OC/C(C)=C\CC(C)COC(C)=O (configuration not stated)	106
Cc1cc(Nc2ccc3c(c2)OCO3)c2cc3c(cc2n1)OCO3	-37.2
Clc1ccc(C(SCc2ccccc2)SCc2ccccc2)cc1	93.2
Cc1onc(-c2ccccc2Cl)c1C(=O)Cl	117
Nc1ccccc1SC1CC(=O)N(c2ccc(Cl)c(Cl)c2)C1=O (configuration not stated)	105
NNC(=O)N/N=C1\C(=O)N(c2nccs2)C(=O)C(=O)C1c1nc2ccccc2s1 (configuration not stated)	93.2

input: Any idea what growth was measured for N#Cc1ccc2nc[nH]c2c1 ?
output: 115

Just for reference, PubChem BioAssay (NCI) is where these values come from.
